B1: KLHL14 (parent)
chain: CAVLDDSIYLVGGYSWSMGAYKSS

Variants of: B1
assay_text: protein stability index of a GFP-peptide fusion (GPS, HEK-293T) (PSI 1-6); higher = more stable;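 further: lentivirally expressed fusions sorted by FACS into six bins by GFP to DsRed ratio, PSI derived from sequencing read proportions per bin multiplied by bin number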
settings: c terminus: a fixed tail appended
assay_endpoint: protein stability index
One number for each entry.

>>> numeric_value("S15R")
1.86
>>> numeric_value("Y14S")
1.83
>>> numeric_value("Y14L")
1.86
>>> numeric_value("M18T")
2.15
>>> numeric_value("S15A")
3.83

Count: 3. Required value per item: protein stability index.
1. V11E
2. W16I
3. D5E

Output line:
2.33
2.35
2.7
